Data provenance: ChEMBL document CHEMBL1961873

Molecular target: Serine/threonine-protein kinase SIK1 (Homo sapiens) (UniProt P57059);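 note: mean inhibition value from the GSK PKIS profiling set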
Sequence (P57059 whole entry): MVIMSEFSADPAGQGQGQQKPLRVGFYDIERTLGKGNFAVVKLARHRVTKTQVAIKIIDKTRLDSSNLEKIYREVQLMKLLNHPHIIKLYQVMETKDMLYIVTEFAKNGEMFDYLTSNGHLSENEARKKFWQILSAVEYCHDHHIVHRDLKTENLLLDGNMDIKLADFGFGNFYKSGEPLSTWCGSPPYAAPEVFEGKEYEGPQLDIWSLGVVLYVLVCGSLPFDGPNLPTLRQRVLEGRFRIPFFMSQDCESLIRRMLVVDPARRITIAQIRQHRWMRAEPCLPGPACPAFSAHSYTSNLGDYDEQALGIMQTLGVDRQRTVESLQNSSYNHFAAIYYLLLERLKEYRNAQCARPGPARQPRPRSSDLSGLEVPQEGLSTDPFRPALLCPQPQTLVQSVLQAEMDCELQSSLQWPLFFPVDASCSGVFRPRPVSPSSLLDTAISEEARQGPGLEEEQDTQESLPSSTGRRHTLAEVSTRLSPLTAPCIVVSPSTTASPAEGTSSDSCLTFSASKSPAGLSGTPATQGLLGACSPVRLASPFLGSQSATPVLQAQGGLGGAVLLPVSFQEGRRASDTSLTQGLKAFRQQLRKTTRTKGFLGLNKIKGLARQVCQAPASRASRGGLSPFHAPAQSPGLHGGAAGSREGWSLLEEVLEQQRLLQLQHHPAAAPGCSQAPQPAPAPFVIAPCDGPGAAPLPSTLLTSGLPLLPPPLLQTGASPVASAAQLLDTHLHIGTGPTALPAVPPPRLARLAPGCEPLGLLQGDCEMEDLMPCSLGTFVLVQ
Conditions: at 1 µM
We use 20% as the dividing line for inhibition: on or above the line is True, below is False.

INSERT INTO results (substance_smiles, class_name) VALUES
  ('COc1c(C(N)=O)cc(-c2ccc(Cl)cc2)cc1-c1ccc(S(N)(=O)=O)cc1', 'False'),
  ('COc1cc(N2CCN(C(C)C)CC2)ccc1Nc1nc(Nc2cccc(F)c2C(=O)O)c2cc[nH]c2n1', 'False'),
  ('COc1cccc(Nc2nccc(-c3cnn4ncccc34)n2)c1', 'True'),
  ('CCN1CCC(C(=O)Nc2n[nH]c3nnc(-c4cccc(F)c4F)cc23)CC1', 'False'),
  ('COc1cc(N2CCN(C(C)C)CC2)ccc1Nc1nc(Nc2cccc3ncccc23)c2cc[nH]c2n1', 'False'),
  ('NC(=O)c1ccc2c(-c3ccnc(NCCCO)n3)c(-c3ccc(F)cc3)nn2c1', 'False'),
  ('Cc1c2ccc(N(C)c3ccnc(Nc4cccc(S(N)(=O)=O)c4)n3)cc2nn1C', 'True'),
  ('COc1cccc(-n2ncc3c(N/N=C/c4ccc(C(=O)NCCN(C)C)cc4)ncnc32)c1', 'True');
